Taken from paper PMC12392461.

target or system: UniProtKB P03372
Sequence (P03372 311-547 limits assumed): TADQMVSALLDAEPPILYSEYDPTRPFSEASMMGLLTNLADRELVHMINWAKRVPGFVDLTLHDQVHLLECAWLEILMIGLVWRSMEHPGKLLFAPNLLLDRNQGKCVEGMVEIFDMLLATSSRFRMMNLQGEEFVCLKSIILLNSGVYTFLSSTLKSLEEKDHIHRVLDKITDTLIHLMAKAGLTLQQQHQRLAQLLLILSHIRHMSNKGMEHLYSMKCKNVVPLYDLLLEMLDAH
measurement notes: cell-based
settings: against experimental cytotoxicity
Answer each item with its documented Specificity ratio (SRcytotoxicity) SRERα.
Simply state the number, no unit and no words.

Query :: Quickly give me recorded Specificity ratio (SRcytotoxicity) SRERα for COC(=O)C(c1ccc(O)cc1)c1ccc(O)cc1 [Bz, Methyl bis(4-hydroxyphenyl)acetate]
Result :: 956.87

Query :: Tell me measured Specificity ratio (SRcytotoxicity) SRERα for CC(C)c1cc(C(C)(C)c2ccc(O)c(C(C)C)c2)ccc1O [BPG] please.
Result :: 7.71

Query :: Fill in reported Specificity ratio (SRcytotoxicity) SRERα for this entry: O=S(=O)(c1ccc(O)cc1)c1ccccc1O [2,4-BPS, 2,4'-Dihydroxydiphenyl sulfone]
Result :: 21.81

Query :: Query Specificity ratio (SRcytotoxicity) SRERα for CC(C)Oc1ccc(S(=O)(=O)c2ccc(O)cc2)cc1 [D8, 4-((4-Isopropoxyphenyl)sulfonyl)phenol]
Result :: 16.41

Query :: Consider the compound O=C(OCc1ccccc1)c1ccc(O)cc1 [BzPB, Benzyl 4-hydroxybenzoate] . State its measured Specificity ratio (SRcytotoxicity) SRERα.
Result :: 13.93

Query :: Quickly give me recorded Specificity ratio (SRcytotoxicity) SRERα for CCC(C)(c1ccc(O)cc1)c1ccc(O)cc1 [BPB, 4,4'-(Butane-2,2-diyl)diphenol]
Result :: 154.61
